Organism: Rattus norvegicus
Assay: Ratio of Ki for Nicotinic acetylcholine receptor alpha-7 and Vesicular monoamine transporter ([…])

smiles str: CN1[C@@H](/C=C/c2ccccc2)CCC[C@@H]1/C=C/c1ccccc1
Ki ratio: > 14.1
--
smiles str: CN(CCCc1ccccc1)CCCc1ccccc1
Ki ratio: > 32.3
--
smiles str: CN[C@@H](CCCCCCc1ccccc1)CCc1ccccc1
Ki ratio: > 19.2
--
smiles str: CN(C/C=C/c1ccccc1)C/C=C/c1ccccc1
Ki ratio: > 42.2
--
smiles str: CN1[C@@H](CCc2ccccc2)C=CC[C@H]1/C=C/c1ccccc1
Ki ratio: > 26
--
smiles str: c1ccc(CC[C@H]2CCC[C@@H](CCc3ccccc3)N2)cc1
Ki ratio: > 43.3
--
smiles str: CN1[C@H](/C=C/c2ccccc2)CCC[C@@H]1/C=C/c1ccccc1
Ki ratio: > 10.1
--
smiles str: C[N+]1(C)[C@@H](CCc2ccccc2)CCC[C@H]1CCc1ccccc1
Ki ratio: 0.6
--
smiles str: C[N+]1(C)[C@H](/C=C/c2ccccc2)CCC[C@H]1/C=C/c1ccccc1
Ki ratio: 1.6

----------
Species: Rattus norvegicus
Assay: Ratio of Ki for Nicotinic acetylcholine receptor alpha4-beta2 and Vesicular Monoamine Transporter ([…])
# reported Ki ratio; entries follow

smiles str: CN[C@@H](CCCCCCc1ccccc1)CCc1ccccc1
Ki ratio: > 19.2

smiles str: C[N+]1(C)[C@H](/C=C/c2ccccc2)CCC[C@H]1/C=C/c1ccccc1
Ki ratio: > 10.8

smiles str: c1ccc2c(CC[C@H]3CCC[C@@H](CCc4cccc5ccccc45)N3)cccc2c1
Ki ratio: > 21.4

smiles str: C(=C\[C@@H]1CCC[C@H](/C=C/c2ccccc2)N1)/c1ccccc1
Ki ratio: > 48.1

smiles str: CN1[C@@H](CCc2ccccc2)C=CC[C@H]1/C=C/c1ccccc1
Ki ratio: > 26

smiles str: CN1[C@@H](CCc2ccc3ccccc3c2)CCC[C@H]1CCc1ccc2ccccc2c1
Ki ratio: > 49.3

smiles str: CN1[C@@H](CCc2cccc3ccccc23)CCC[C@H]1CCc1cccc2ccccc12
Ki ratio: > 159

smiles str: c1ccc(CC[C@H]2CCC[C@@H](CCc3ccccc3)N2)cc1
Ki ratio: > 43.3

smiles str: C(=C\[C@@H]1CCC[C@@H](/C=C/c2ccccc2)N1)/c1ccccc1.C(=C\[C@H]1CCC[C@H](/C=C/c2ccccc2)N1)/c1ccccc1
Ki ratio: > 19.3

----------
Target: Synaptic vesicular amine transporter (Rattus norvegicus)
Sequence (Q01827 whole entry): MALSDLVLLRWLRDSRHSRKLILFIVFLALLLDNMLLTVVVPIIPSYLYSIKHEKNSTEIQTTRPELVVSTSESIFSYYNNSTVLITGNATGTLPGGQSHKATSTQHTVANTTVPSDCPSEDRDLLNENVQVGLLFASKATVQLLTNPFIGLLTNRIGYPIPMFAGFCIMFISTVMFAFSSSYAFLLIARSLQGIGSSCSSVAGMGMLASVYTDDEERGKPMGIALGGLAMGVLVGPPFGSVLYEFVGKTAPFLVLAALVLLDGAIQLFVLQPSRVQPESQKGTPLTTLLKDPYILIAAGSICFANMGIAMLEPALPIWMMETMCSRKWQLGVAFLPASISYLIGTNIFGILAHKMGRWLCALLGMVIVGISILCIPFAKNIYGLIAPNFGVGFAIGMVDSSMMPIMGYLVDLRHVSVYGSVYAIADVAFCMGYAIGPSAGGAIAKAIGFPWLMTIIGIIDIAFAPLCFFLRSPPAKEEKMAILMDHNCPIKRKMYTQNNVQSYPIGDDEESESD
pKi: −log10 of the molar value.
Mark rule met for reported pKi of 5 or greater; mark rule not met for anything smaller.

smiles str: CN[C@H](CCCCCCc1ccccc1)CCc1ccccc1
assigned label: rule met

smiles str: c1ccc2c(CC[C@H]3CCC[C@@H](CCc4cccc5ccccc45)N3)cccc2c1
assigned label: rule met

smiles str: C[N+]1(C)[C@H](/C=C/c2ccccc2)CCC[C@@H]1/C=C/c1ccccc1
assigned label: rule not met

smiles str: CN1[C@@H](CCc2ccc3ccccc3c2)CCC[C@H]1CCc1ccc2ccccc2c1
assigned label: rule met

smiles str: c1ccc(CC[C@H]2CCC[C@@H](CCc3ccccc3)N2)cc1
assigned label: rule met

smiles str: CN(C/C=C/c1ccccc1)C/C=C/c1ccccc1
assigned label: rule met

smiles str: C[N+]1(C)[C@H](CCc2ccccc2)CCC[C@H]1CCc1ccccc1
assigned label: rule not met

smiles str: CN[C@@H](CCCCCCc1ccccc1)CCc1ccccc1
assigned label: rule met

smiles str: C(=C\[C@@H]1CCC[C@@H](/C=C/c2ccccc2)N1)/c1ccccc1.C(=C\[C@H]1CCC[C@H](/C=C/c2ccccc2)N1)/c1ccccc1
assigned label: rule met

smiles str: C[N+]1(C)[C@@H](CCc2ccccc2)CCC[C@H]1CCc1ccccc1
assigned label: rule not met

smiles str: CN1[C@H](/C=C/c2ccccc2)CCC[C@H]1/C=C/c1ccccc1
assigned label: rule not met

smiles str: CN1[C@@H](CCc2ccccc2)C=CC[C@H]1/C=C/c1ccccc1
assigned label: rule met

smiles str: CN1[C@@H](/C=C/c2ccccc2)CCC[C@@H]1/C=C/c1ccccc1
assigned label: rule met
